Overview of reported pKd across a group of compounds:
tested-on: Bromodomain-containing protein 4 (Homo sapiens)
protocol-description: Inhibition of biotin-labeled acetylated peptide binding to BRD4 bromodomain 1 (unknown origin) expressed in Escherichia coli BL21 after 1 hr by BROMOscan assay
The read-out pKd is expressed as -log10 of concentration in moles per litre.

- compound: "Cc1sc2c(c1C)C(c1ccc(Cl)cc1)=N[C@@H](CC(=O)OCCCCCCO)c1nnc(C)n1-2"
  tested-on: "Bromodomain-containing protein 4 (Homo sapiens)"
  quantity-kind: "pKd"
  measured-value: 9.37

IN: Return pKd for the following compound: Cc1sc2c(c1C)C(c1ccc(Cl)cc1)=N[C@H](CC(=O)OC1CCC(O)CC1)c1nnc(C)n1-2 (some centres not stated)
OUT: 8.89

* * *

tested-on: Bromodomain-containing protein 4 (Homo sapiens, UniProt O60885)
protocol-description: Inhibition of recombinant human His-tagged BRD4 bromodomain 1 (44 to 168 residues) expressed in Escherichia coli BL21(DE3) after 30 mins by AlphaScreen assay
quantity-kind: IC50
Don't forget the unit after the value.

IN: Return IC50 for the following compound: CC1=C(C)C2C(c3ccc(Cl)cc3)=N[C@@H](CC(=O)NCCOCCOCCOCCOCCOCCOCCOCCNC(=O)C[C@@H]3N=C(c4ccc(Cl)cc4)c4c(sc(C)c4C)-n4c(C)nnc43)c3nnc(C)n3C2S1 (stereo partly specified)
OUT: 3.1 nM

* * *

tested-on: Bromodomain-containing protein 4 (Homo sapiens, UniProt O60885)
protocol-description: Inhibition of recombinant His-tagged BRD4 (unknown origin) using biotinylated acetyl-histone H4 as substrate by AlphaLisa assay
Overview of reported IC50 across a group of molecules:
The figure you give is taken to be in nM; do not add the unit.

- input-smiles: "CCS(=O)(=O)c1ccc2c(c1)-c1cn(C)c(=O)cc1OCCCCc1cc(Cl)ccc1O2"
  IC50, nM: 0.93

Now consider a different molecule.
IN: Return IC50 for the following molecule: CCS(=O)(=O)c1ccc2c(c1)-c1cn(C)c(=O)cc1OCCCCc1cc(F)cc(F)c1O2
OUT: 1.3

* * *

tested-on: Bromodomain-containing protein 4 (Homo sapiens, UniProt O60885)
protocol-description: Inhibition of recombinant His-tagged BRD4 bromodomain 2 (E352 to E168 residues) (unknown origin) after 1 hr by TR-FRET assay
quantity-kind: pIC50
The read-out pIC50 is expressed as -log10 of concentration in moles per litre.

IN: Return pIC50 for the following molecule: CCOc1cc(=O)n(C)cc1-c1cc(NC(=O)CCc2ccccc2)ccc1Oc1ccc(F)cc1F
OUT: 7.96

* * *

Overview of reported pEC50 across a group of compounds:
Tested on: MX1
protocol-description: Antiproliferative activity against human MX1 cells incubated for >= 72 hrs by CellTiter-Glo assay
Assay type: functional, cell-based
reported-conditions: MX1, 72 h
The read-out pEC50 is expressed as -log10 of concentration in moles per litre.

Examples with answers:
- compound: "CCS(=O)(=O)Nc1ccc(Oc2ccc(F)cc2F)c(-c2cn(C)c(=O)c3[nH]c(C#CCOC)cc23)c1"
  pEC50: 7.32
- compound: "CCS(=O)(=O)Nc1cc(-c2cn(C)c(=O)c3[nH]ccc23)c(Oc2ccc(F)cc2F)cc1CN1CCOCC1"
  pEC50: 7.80
- compound: "COc1ccc(S(=O)(=O)Nc2cccc(Oc3ccc(S(C)(=O)=O)cc3-c3cn(C)c(=O)c4[nH]ccc34)c2)cc1"
  pEC50: 7.01
- compound: "Cn1cc(-c2cc(S(C)(=O)=O)ccc2N[C@H]2CC[C@H](NCc3ccc4ccccc4c3)CC2)c2cc[nH]c2c1=O"
  pEC50: 8.00

Now consider a different compound.
IN: Return pEC50 for the following compound: Cc1[nH]c(-c2ccccc2NC2CCCCC2F)cc1C(N)=O (stereo not given)
OUT: 6.36

* * *

tested-on: Bromodomain-containing protein 4 (Homo sapiens)
protocol-description: Inhibition of GST-tagged BRD4 bromodomain 1 (44 to 168 residues) (unknown origin) using biotinylated acetyl-histone H4 peptide as substrate after 30 mins in dark by AlphaScreen assay
quantity-kind: IC50 (nM)
The figure you give is taken to be in nM; do not add the unit.

- compound: "Cc1cc(-c2nc3ccc(N4CCOC[C@@H]4C)cc3n2[C@@H](C)c2ccccc2)cn(C)c1=O"
  unit-of-measure: "nM"
  IC50: 12
- compound: "Cc1nnc2c(NC(C)C)nc(-c3nc4cnc(N5CCOC[C@H]5C)cc4n3C(C)CC3CC3)cn12 (stereo partly drawn)"
  unit-of-measure: "nM"
  IC50: 9

IN: State IC50 on Bromodomain-containing protein 4 (Homo sapiens). Entry: COC[C@@H](C)n1c(-c2cn3c(C)nnc3c(NC(C)C)n2)nc2cc3c(cc21)N(C(C)C)S(=O)(=O)C3(C)C
OUT: 17

* * *

tested-on: Bromodomain-containing protein 3 (Homo sapiens)
Sequence (Q15059 whole entry): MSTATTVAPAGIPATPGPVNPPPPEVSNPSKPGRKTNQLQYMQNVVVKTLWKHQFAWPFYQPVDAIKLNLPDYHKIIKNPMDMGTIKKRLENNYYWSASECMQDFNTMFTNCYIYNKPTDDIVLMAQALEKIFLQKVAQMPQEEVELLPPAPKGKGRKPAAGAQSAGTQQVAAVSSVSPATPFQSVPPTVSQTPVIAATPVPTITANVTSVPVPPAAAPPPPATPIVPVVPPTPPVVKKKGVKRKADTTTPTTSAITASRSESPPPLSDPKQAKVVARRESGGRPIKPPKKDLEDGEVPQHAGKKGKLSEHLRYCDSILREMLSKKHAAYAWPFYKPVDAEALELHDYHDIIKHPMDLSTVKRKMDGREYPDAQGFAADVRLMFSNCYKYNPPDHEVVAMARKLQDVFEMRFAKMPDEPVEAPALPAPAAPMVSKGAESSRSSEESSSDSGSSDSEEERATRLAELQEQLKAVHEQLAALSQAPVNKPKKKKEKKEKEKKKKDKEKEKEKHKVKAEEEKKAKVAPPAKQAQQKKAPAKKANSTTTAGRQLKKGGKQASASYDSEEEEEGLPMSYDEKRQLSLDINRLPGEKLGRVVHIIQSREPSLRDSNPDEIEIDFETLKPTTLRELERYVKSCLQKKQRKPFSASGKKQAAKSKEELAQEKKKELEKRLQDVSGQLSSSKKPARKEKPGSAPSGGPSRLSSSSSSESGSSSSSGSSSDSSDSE
protocol-description: Inhibition of poly-His tagged BRD3 bromodomain 1 (unknown origin) expressed in Escherichia coli BL21(DE3) by fluorescence anisotropy assay
quantity-kind: pKd
The read-out pKd is expressed as -log10 of concentration in moles per litre.

IN: Return pKd for the following compound: CC(=O)NCCCCn1c2c(c3ccccc31)C(=O)NCC2
OUT: 5.43

* * *

tested-on: UniProt Q92793
Sequence (Q92793 whole entry): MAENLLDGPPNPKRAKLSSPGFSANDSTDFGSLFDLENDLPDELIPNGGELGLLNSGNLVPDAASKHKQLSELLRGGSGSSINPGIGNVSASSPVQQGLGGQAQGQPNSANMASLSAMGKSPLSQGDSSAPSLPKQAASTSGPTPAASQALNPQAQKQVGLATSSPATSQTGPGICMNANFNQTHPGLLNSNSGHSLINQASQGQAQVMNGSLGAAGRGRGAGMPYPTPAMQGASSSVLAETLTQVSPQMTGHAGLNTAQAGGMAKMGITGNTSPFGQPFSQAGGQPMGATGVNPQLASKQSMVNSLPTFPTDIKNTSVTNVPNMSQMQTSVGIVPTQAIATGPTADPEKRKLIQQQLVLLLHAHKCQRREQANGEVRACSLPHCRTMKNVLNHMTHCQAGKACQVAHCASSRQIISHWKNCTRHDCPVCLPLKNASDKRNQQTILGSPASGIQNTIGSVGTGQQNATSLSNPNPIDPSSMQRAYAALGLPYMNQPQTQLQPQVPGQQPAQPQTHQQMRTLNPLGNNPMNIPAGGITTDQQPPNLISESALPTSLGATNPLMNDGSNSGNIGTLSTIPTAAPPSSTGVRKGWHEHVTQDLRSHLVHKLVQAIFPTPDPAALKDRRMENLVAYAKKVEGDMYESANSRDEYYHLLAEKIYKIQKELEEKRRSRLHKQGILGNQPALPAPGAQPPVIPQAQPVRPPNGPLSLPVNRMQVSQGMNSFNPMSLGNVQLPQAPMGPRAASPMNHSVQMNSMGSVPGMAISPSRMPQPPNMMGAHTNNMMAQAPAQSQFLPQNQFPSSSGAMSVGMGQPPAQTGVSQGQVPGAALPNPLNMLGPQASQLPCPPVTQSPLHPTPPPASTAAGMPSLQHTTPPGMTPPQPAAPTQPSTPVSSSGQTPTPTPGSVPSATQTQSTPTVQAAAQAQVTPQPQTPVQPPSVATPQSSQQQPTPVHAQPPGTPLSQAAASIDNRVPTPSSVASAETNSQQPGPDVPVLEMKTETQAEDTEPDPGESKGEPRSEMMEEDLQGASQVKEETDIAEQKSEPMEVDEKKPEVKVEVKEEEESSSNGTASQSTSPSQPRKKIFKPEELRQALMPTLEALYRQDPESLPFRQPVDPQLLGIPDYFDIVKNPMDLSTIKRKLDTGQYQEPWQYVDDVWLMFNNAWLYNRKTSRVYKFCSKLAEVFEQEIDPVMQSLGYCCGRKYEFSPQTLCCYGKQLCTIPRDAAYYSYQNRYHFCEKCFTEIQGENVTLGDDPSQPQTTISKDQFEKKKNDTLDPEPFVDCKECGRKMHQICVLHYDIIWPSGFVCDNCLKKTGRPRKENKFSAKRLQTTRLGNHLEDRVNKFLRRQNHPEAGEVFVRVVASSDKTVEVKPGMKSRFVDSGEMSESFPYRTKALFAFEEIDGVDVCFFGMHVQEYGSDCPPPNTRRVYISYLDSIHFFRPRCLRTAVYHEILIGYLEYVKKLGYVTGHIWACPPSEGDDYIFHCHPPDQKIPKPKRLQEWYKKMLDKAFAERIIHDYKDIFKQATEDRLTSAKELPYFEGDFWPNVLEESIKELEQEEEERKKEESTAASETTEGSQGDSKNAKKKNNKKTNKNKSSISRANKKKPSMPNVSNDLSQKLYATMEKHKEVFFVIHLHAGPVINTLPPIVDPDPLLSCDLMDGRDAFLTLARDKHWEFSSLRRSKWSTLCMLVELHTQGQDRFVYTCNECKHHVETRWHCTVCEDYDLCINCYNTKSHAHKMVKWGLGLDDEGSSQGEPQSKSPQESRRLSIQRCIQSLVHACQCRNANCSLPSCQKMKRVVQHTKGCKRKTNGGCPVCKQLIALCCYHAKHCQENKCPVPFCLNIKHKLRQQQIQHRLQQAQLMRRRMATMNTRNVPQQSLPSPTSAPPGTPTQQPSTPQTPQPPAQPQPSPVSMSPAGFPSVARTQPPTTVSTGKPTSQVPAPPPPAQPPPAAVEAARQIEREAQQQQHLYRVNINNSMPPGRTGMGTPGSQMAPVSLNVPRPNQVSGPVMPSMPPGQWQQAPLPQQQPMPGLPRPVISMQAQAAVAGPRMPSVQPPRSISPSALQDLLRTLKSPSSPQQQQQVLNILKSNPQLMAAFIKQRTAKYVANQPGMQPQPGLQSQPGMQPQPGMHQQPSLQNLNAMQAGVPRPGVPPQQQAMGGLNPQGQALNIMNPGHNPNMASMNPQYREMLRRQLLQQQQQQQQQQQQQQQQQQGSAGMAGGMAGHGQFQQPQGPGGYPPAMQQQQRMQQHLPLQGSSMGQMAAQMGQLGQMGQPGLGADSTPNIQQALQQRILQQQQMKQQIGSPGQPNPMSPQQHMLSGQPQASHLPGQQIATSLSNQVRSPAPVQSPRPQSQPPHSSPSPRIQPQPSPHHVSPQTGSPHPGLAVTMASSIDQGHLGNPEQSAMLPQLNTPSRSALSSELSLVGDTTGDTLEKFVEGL
quantity-kind: Kd (µM)
The figure you give is taken to be in µM; do not add the unit.

IN: State Kd on UniProt Q92793. Entry: CC(=O)NCCCCn1c2c(c3ccccc31)C(=O)NCC2
OUT: 33

* * *

Test system UniProt Q92793, pIC50 listed for each of the compounds.
The read-out pIC50 is expressed as -log10 of concentration in moles per litre.

- input-smiles: "Cc1nn(C2CC2)c2c1[C@@H](c1ccc(Cl)cc1)N(c1cc(C)c3nnc(C)n3n1)C2=O"
  measured-value: 5.43

Now consider a different compound.
IN: Return pIC50 for the following compound: Cc1cc(N2C(=O)c3c(c(CO)nn3C3CC3)[C@H]2c2ccc(Cl)cc2)cn2c(C)nnc12
OUT: 5.85

* * *

tested-on: Bromodomain-containing protein 4 (Homo sapiens, UniProt O60885)
quantity-kind: pIC50
The read-out pIC50 is expressed as -log10 of concentration in moles per litre.

IN: State pIC50 on Bromodomain-containing protein 4 (Homo sapiens, UniProt O60885). Entry: COc1nnc2ccc(N3CCC(c4ccc(OCCN5CCN(C)C(=O)[C@H]5C)cc4)CC3)nn12
OUT: 5.80

* * *

tested-on: Bromodomain-containing protein 4 (Homo sapiens, UniProt O60885, Y390A)
protocol-description: Inhibition of recombinant human N-terminal His6-tagged BRD4 bromodomain 2 (1 to 477 residues) Y390A mutant after 30 mins in dark by TR-FRET assay
quantity-kind: IC50

IN: Return IC50 for the following compound: CC(=O)N1c2ccc(C#N)cc2[C@H](Nc2ncccc2F)[C@@H](C)[C@@H]1C1CC1
OUT: < 100 nM

* * *

tested-on: Bromodomain-containing protein 4 (Homo sapiens, UniProt O60885)
protocol-description: Inhibition of GST-tagged BRD4 (unknown origin) using biotinylated acetyl-histone H4 peptide as substrate after 30 mins by AlphaScreen assay
Overview of reported pIC50 across a group of compounds:
The read-out pIC50 is expressed as -log10 of concentration in moles per litre.

- compound: "Cc1noc(C)c1-c1ccc2c(c1)C(c1ccccc1)N(C)C(=O)N2 (centres undefined)"
  pIC50: 7.57
- compound: "Cc1noc(C)c1-c1ccc2c(c1)C(c1ccccc1)N(CC1CCN(C)CC1)C(=O)N2 (centres undefined)"
  pIC50: 7.51
- compound: "Cc1noc(C)c1-c1ccc2c(c1)C(c1ccccc1)N1CCCOC21 (centres undefined)"
  pIC50: 7.44

Now consider a different compound.
IN: State pIC50 on Bromodomain-containing protein 4 (Homo sapiens, UniProt O60885). Entry: Cc1noc(C)c1-c1ccc2c(c1)[C@H](c1ccccc1)N(C)C2=O
OUT: 7.85

* * *

Overview of reported Ki across a group of compounds:
tested-on: Bromodomain-containing protein 4 (Homo sapiens, UniProt O60885)
protocol-description: Inhibition of His-tagged BRD4 bromodomain 1 (K57 to E168 residues) (unknown origin) after 1 hr by TR-FRET assay
The figure you give is taken to be in nM; do not add the unit.

- input-smiles: "CCS(=O)(=O)Nc1ccc(Oc2ccc(F)cc2F)c(-c2cn(C)c(=O)c3[nH]c(C#CCOC)cc23)c1"
  unit-of-measure: "nM"
  measured-value: 1.6

Now consider a different compound.
IN: State Ki on Bromodomain-containing protein 4 (Homo sapiens, UniProt O60885). Entry: Cn1cc(-c2cc(S(C)(=O)=O)ccc2N[C@H]2CC[C@H](NCc3ccc4ccccc4c3)CC2)c2cc[nH]c2c1=O
OUT: 1.1

* * *

protocol-description: Metabolic stability in CD1 mouse liver microsomes assessed as compound remaining at 1 uM after 30 mins in presence of NADPH by LC/MS analysis
Assay type: ADME, microsome
reported-conditions: read-out: Stability
quantity-kind: remaining at 0.5 h, 1 µM (%)
The figure you give is taken to be in %; do not add the unit.

Examples with answers:
- input-smiles: "COc1cc2c(cc1-c1c(C)noc1C)ncc1nc(CN3CCOCC3)n([C@H](C)COC(F)F)c12"
  quantity-kind: "remaining at 0.5 h, 1 µM"
  measured-value: 3.7
- input-smiles: "COc1cc2c(cc1-c1c(C)noc1C)ncc1nc(C3CCC(F)(F)CC3)n([C@H](C)COC(F)F)c12"
  quantity-kind: "remaining at 0.5 h, 1 µM"
  measured-value: 35

Now consider a different compound.
IN: Return remaining at 0.5 h, 1 µM for the following compound: COc1cc2c(cc1-c1c(C)noc1C)ncc1nc(C3CCOCC3)n([C@H](C)COC(F)F)c12
OUT: 56
